- Tested on: HT-29
- EXPERIMENT: Downregulation of VEGFA-165 secretion in human HT-29 cells assessed as protein secretion levels at 15 ug/ml after 72 hrs by ELISA relative to control
- Assay type: functional
VALUE TYPE: Activity (%)
I only need the number, in %, no unit after it.

For this compound ( COc1cccc(-c2ccc(O)cc2)c1 ), measured Activity is 48

Record COc1ccc(-c2ccccc2N)cc1OC . Reported Activity: 56

For this compound ( COc1ccccc1-c1cccc(O)c1 ), measured Activity is 31

New cases:
What the record says about COc1ccc(-c2ccc(O)cc2)c(OC)c1 : Activity is 35

Notebook: Nc1ccccc1-c1ccccc1 , Activity read as 91
